The reported measurements were obtained from patent US7998995B2.

Item-by-item account of pEC50
Tested on: LXR
Construct: fused on or other part: GST fused to the LBD in the FRET assay
Experiment: Measured EC50 or IC50 for LXR (LXRα and/or LXRβ; assay and subtype not given)
Settings: IC50 or EC50 class, subtype not specified
Method: Measured EC50 or IC50 for LXR, and FXR for Compounds of the Invention LXR and FXR activities for various compounds of the invention are presented in the following table; those compounds with EC50 or IC50 values <10 μM for at least one of LXRα, LXRβ or FXR are considered to be active. In the following Table, IC50 or EC50 data is represented as follows: A<1 μM, B=1-10 μm, and C>10 μM.
pEC50: −log10 of the molar value.

>  <SMILES CODE>
CS(=O)(=O)c1cccc(-c2ccc(-n3cc(N4CCCC4)nc3-c3c(Cl)cccc3Cl)cc2)c1

>  <pEC50>
> 6.00

$$$$
>  <SMILES CODE>
CS(=O)(=O)c1cccc(-c2ccc(OCc3cc(C(F)(F)F)nn3-c3ccccc3Cl)c(C#N)c2)c1

>  <pEC50>
5.00 to 6.00

$$$$
>  <SMILES CODE>
CS(=O)(=O)c1cccc(-c2ccc(-n3cc(-c4nnc(C(F)(F)F)o4)nc3-c3ccccc3Cl)c(Cl)c2)c1

>  <pEC50>
> 6.00

$$$$
>  <SMILES CODE>
Cc1cc(-c2cccc(S(C)(=O)=O)c2)ccc1-c1cc(C(C)(C)O)nn1-c1c(Cl)cccc1Cl

>  <pEC50>
> 6.00

$$$$
>  <SMILES CODE>
Cc1nc(-c2cn(-c3ccc(-c4cccc(S(C)(=O)=O)c4)cc3)c(-c3ccccc3C(F)(F)F)n2)no1

>  <pEC50>
> 6.00

$$$$
>  <SMILES CODE>
CS(=O)(=O)Cc1ccc(C#Cc2cc(C(F)(F)F)nn2-c2ccccc2Cl)cc1

>  <pEC50>
5.00 to 6.00

$$$$
>  <SMILES CODE>
COc1cc(-c2ccc(-c3cccc(S(C)(=O)=O)c3)s2)n(-c2ccccc2Cl)n1

>  <pEC50>
< 5.00

$$$$
>  <SMILES CODE>
CS(=O)(=O)c1cccc(-c2ccc(-n3cc(-n4cnc(CO)c4)nc3-c3ccccc3C(F)(F)F)cc2)c1

>  <pEC50>
> 6.00

$$$$
>  <SMILES CODE>
CS(=O)(=O)c1cccc(-c2ccc(-n3cc(N4CCCCC4)nc3-c3ccccc3C(F)(F)F)cc2)c1

>  <pEC50>
> 6.00

$$$$
>  <SMILES CODE>
FC(F)(F)c1cc(COc2ccc(-n3ccnc3)cc2)n(-c2c(Cl)cccc2Cl)n1

>  <pEC50>
> 6.00

$$$$

As a next step, examine the compound that follows.
input: Kindly state the measured pEC50 obtained for CS(=O)(=O)c1cccc(NC(=O)c2cc(C(F)(F)F)nn2-c2ccccc2Cl)c1 with LXR.
output: < 5.00

* * *

tested on: LXR; construct: fused on or other part: GST fused to the LBD in the FRET assay; experiment: Measured EC50 or IC50 for LXR (LXRα and/or LXRβ; assay and subtype not given); conditions: IC50 or EC50 class, subtype not specified
pEC50: −log10 of the molar value.
OBSERVABLE: pEC50

These recorded examples may help you get a feel for the data.
>  <COMPOUND>
CS(=O)(=O)c1cccc(-c2ccc(-n3cc(C4=NCCN4)nc3-c3c(Cl)cccc3Cl)c(Cl)c2)c1 [Example 941]

>  <TARGET OF ASSAY>
LXR

>  <pEC50>
5.00 to 6.00

$$$$
>  <COMPOUND>
CS(=O)(=O)c1cccc(-c2ccc(OCc3nc(C(F)(F)F)cn3-c3c(Cl)cccc3Cl)cc2)c1 [Example 114]

>  <TARGET OF ASSAY>
LXR

>  <pEC50>
> 6.00

$$$$
>  <COMPOUND>
CC(C)(O)c1cc(-c2ccc(-c3cccc(S(C)(=O)=O)c3)s2)n(-c2c(F)cccc2F)n1 [Example 948]

>  <TARGET OF ASSAY>
LXR

>  <pEC50>
> 6.00

$$$$

input: Quick one: pEC50 for CN1CC(c2cn(-c3ccc(-c4cccc(S(C)(=O)=O)c4)cc3Cl)c(-c3ccccc3Cl)n2)CC1=O (stereo not shown) [Example 984] ?
output: > 6.00

* * *

test system: LXR; construct: fused on or other part: GST fused to the LBD in the FRET assay; assay: Measured EC50 or IC50 for LXR (LXRα and/or LXRβ; assay and subtype not given); settings: IC50 or EC50 class, subtype not specified
pEC50: −log10 of the molar value.
OBSERVABLE: pEC50

Study these solved cases before continuing.
>  <MOLECULE>
CC(C)(O)c1cc(-c2ccc(-c3cccc(S(C)(=O)=O)c3)s2)n(-c2c(Cl)cncc2Cl)n1 [Example 955]

>  <OBSERVED RESULT>
> 6.00

$$$$
>  <MOLECULE>
CC1(C)CC(=O)C=C(c2cn(-c3ccc(-c4cccc(S(C)(=O)=O)c4)cc3Cl)c(-c3ccccc3Cl)n2)O1 [Example 982]

>  <OBSERVED RESULT>
> 6.00

$$$$
>  <MOLECULE>
CC(C)(O)c1cc(-c2c(Cl)cccc2Cl)n(-c2ccc(-c3cccc(S(C)(=O)=O)c3)cc2)n1 [Example 963]

>  <OBSERVED RESULT>
> 6.00

$$$$

input: Item CC1(C)CN=C(c2cn(-c3ccc(-c4cccc(S(C)(=O)=O)c4)cc3Cl)c(-c3c(Cl)cccc3Cl)n2)N1 [Example 942] has what recorded pEC50?
output: < 5.00

* * *

System: LXR
Construct: fused on or other part: GST fused to the LBD in the FRET assay
Assay: Measured EC50 or IC50 for LXR (LXRα and/or LXRβ; assay and subtype not given)
Conditions: IC50 or EC50 class, subtype not specified
Method: Measured EC50 or IC50 for LXR, and FXR for Compounds of the Invention LXR and FXR activities for various compounds of the invention are presented in the following table; those compounds with EC50 or IC50 values <10 μM for at least one of LXRα, LXRβ or FXR are considered to be active. In the following Table, IC50 or EC50 data is represented as follows: A<1 μM, B=1-10 μm, and C>10 μM.
pEC50: −log10 of the molar value.
OBSERVABLE: pEC50

>  <COMPOUND>
CC(C)c1cc(COc2ccc(-c3ccc(C(=O)O)cc3Cl)cc2)n(-c2c(Cl)cccc2Cl)n1 [Example 907]

>  <OBSERVED RESULT>
5.00 to 6.00

$$$$
>  <COMPOUND>
CS(=O)(=O)c1cccc(-c2ccc(-n3cc(C4(O)CC4)nc3-c3ccccc3Cl)cc2)c1 [Example 980]

>  <OBSERVED RESULT>
> 6.00

$$$$
>  <COMPOUND>
CC(C)(O)c1nn(-c2c(Cl)cccc2Cl)c(-c2ccc(-c3cccc(S(C)(=O)=O)c3)cc2Cl)c1Cl [Example 959]

>  <OBSERVED RESULT>
> 6.00

$$$$
>  <COMPOUND>
CS(=O)(=O)c1cccc(-c2ccc(-n3cc(-n4cnc(C#N)c4)nc3-c3ccccc3C(F)(F)F)cc2)c1 [Example 1008]

>  <OBSERVED RESULT>
> 6.00

$$$$

# context switch: different compound, same pEC50
input: So what does the record say about pEC50 for CC(C)(c1ccccc1Cl)c1nc(C2CCCN2)cn1-c1ccc(-c2cccc(S(C)(=O)=O)c2)cc1 (centres unmarked) [Example 976] ?
output: 5.00 to 6.00

* * *

Target: FXR (Homo sapiens, UniProt Q96RI1)
Sequence (Q96RI1 1-472 isoform Q96RI1-2): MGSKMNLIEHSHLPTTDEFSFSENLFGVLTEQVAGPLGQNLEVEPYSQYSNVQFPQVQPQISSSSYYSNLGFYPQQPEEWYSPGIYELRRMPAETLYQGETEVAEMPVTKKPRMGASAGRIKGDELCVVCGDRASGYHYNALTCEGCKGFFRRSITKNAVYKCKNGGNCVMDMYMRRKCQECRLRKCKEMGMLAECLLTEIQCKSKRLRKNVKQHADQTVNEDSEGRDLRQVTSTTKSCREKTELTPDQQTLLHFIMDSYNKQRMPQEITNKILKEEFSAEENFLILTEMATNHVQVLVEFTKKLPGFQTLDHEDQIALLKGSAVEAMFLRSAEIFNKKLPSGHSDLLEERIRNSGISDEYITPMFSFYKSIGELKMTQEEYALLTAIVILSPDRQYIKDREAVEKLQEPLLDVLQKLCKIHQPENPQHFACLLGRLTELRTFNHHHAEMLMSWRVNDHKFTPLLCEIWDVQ
Assay: Measured EC50 or IC50 for FXR (assay not given)
Conditions: IC50 or EC50 class; assay not specified
Reported EC50 values for a set of compounds

These solved cases illustrate the format of a correct answer.
>  <COMPOUND>
CC(C)(O)c1cc(-c2ccc(-c3cccc(S(C)(=O)=O)c3)cc2)n(-c2c(Cl)cccc2Cl)n1

>  <TARGET OF ASSAY>
FXR (Homo sapiens, UniProt Q96RI1)

>  <EC50>
1000 to 10000 nM

$$$$
>  <COMPOUND>
CC(C)(O)c1nn(-c2ccc(-c3cccc(S(C)(=O)=O)c3)cc2F)c(-c2c(F)cccc2Cl)c1Cl

>  <TARGET OF ASSAY>
FXR (Homo sapiens, UniProt Q96RI1)

>  <EC50>
1000 to 10000 nM

$$$$
>  <COMPOUND>
CC(C)(O)c1cc(-c2ccc(-c3cccc(S(C)(=O)=O)c3)s2)n(-c2c(F)cccc2Cl)n1

>  <TARGET OF ASSAY>
FXR (Homo sapiens, UniProt Q96RI1)

>  <EC50>
1000 to 10000 nM

$$$$

input: Reported EC50 for O=C(O)c1ccc(-c2ccc(OCc3cc(C(F)(F)F)nn3-c3c(Cl)cccc3Cl)cc2)cc1 : what is it?
output: 1000 to 10000 nM

input: Look at this compound and give its reported EC50. CC(C)c1cc(COc2ccc(-c3ccc(C(=O)O)cc3Cl)cc2)n(-c2c(Cl)cccc2Cl)n1 [Example 947]
output: < 1000 nM

input: Consider the compound CC(C)(O)c1nn(-c2c(Cl)cccc2Cl)c(-c2ccc(-c3cccc(S(C)(=O)=O)c3)cc2Cl)c1Cl and give its measured EC50.
output: < 1000 nM

input: Which EC50 value is on record for Cc1cc(-n2nc(C(C)(C)O)c(Cl)c2-c2c(Cl)cccc2Cl)ccc1-c1cccc(S(C)(=O)=O)c1 ?
output: 1000 to 10000 nM
